# measured on: c-Ret on NB41A3-mRL3 cells (UniProt P35546 29-1115, limits assumed)
# Sequence (P35546 29-1115 limits assumed): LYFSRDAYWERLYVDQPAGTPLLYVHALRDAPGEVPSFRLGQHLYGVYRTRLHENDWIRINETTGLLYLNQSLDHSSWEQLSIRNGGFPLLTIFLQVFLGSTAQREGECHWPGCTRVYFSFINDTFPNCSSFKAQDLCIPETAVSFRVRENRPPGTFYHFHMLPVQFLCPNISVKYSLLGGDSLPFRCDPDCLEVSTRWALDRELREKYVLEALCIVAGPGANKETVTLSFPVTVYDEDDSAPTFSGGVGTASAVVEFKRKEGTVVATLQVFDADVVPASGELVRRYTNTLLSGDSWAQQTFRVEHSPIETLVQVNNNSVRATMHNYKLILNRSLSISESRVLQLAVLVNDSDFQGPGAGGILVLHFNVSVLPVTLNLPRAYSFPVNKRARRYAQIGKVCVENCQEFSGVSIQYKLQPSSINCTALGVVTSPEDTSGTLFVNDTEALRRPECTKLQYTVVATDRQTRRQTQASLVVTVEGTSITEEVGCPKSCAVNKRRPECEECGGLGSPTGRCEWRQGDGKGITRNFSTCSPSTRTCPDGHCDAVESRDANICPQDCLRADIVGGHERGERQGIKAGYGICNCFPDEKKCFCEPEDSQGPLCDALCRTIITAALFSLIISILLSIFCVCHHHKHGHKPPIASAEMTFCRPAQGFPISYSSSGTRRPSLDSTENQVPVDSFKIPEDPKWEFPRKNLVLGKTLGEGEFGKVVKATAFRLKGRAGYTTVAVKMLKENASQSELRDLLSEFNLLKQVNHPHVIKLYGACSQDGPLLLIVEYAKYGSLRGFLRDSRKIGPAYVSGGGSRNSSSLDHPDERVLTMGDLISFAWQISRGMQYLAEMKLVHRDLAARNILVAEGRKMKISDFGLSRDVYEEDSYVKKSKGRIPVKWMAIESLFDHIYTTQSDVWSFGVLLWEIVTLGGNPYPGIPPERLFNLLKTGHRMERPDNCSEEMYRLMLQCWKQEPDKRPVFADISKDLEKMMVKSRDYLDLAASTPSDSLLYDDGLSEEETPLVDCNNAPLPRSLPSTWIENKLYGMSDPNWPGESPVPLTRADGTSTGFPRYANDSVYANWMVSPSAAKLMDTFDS
# test summary: cell-based or functional assay
Each entry below lists one item and its recorded KIRA: ∼EC50 value.

# annotated cases, reported KIRA: ∼EC50 shown
>>> assay_value("4 X 10 kDa PEG NBN106-N95K (ligand, 10 kDa PEG on the amino-terminal amino acid and on Lys95 of each chain (PEGylated amino acids 1,1,95,95)) ARATDARGCRLRSQLVPVSALGLGHSSDELIRFRFCSGSCRRARSPHDLSLASLLGAGALRSPPGSRPISQPCCRPTRYEAVSFMDVKSTWRTVDHLSATACGCLG")
"~11 nM"
>>> assay_value("1 X 20 kDa Branched PEG-NBN (ligand, one 20 kDa branched PEG per dimer, on amino acid 1 of one chain (PEGylated amino acids: 1)) AGTRSSRARATDARGCRLRSQLVPVSALGLGHSSDELIRFRFCSGSCRRARSPHDLSLASLLGAGALRSPPGSRPISQPCCRPTRYEAVSFMDVNSTWRTVDHLSATACGCLG")
"~0.2 nM"
>>> assay_value("3 X 10 kDa PEG-WT/N95K-NBN106 (ligand, 10 kDa PEG on the amino-terminal amino acid and on Lys95; 10 kDa PEG on the amino-terminal amino acid) chain 1: ARATDARGCRLRSQLVPVSALGLGHSSDELIRFRFCSGSCRRARSPHDLSLASLLGAGALRSPPGSRPISQPCCRPTRYEAVSFMDVNSTWRTVDHLSATACGCLG chain 2: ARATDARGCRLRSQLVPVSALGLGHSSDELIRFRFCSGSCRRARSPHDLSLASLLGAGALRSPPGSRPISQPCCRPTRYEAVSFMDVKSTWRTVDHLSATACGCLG")
"~0.7 nM"

Req: What value of measured KIRA: ∼EC50 is listed for 4 X 5 kDa PEG NBN106-N95K (ligand, 5 kDa PEG on the amino-terminal amino acid and on Lys95 of each chain (PEGylated amino acids 1,1,95,95)) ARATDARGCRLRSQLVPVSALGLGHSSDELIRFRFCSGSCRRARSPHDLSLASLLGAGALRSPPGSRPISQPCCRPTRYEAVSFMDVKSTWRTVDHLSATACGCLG ?
Resp: ~1 nM

Req: What value of measured KIRA: ∼EC50 is listed for 3(,4) X 10 kDa PEG NBN106-N95K (ligand, average of 3.3 10 kDa PEG (SPA-PEG) per dimer: on both amino-terminal amino acids and on one or both Lys95 (PEGylated amino acids 1,1,95 (,95))) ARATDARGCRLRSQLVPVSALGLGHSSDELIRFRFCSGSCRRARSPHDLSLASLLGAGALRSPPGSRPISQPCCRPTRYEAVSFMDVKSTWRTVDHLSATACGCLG ?
Resp: ~1.6 nM
